# Test Settings: 293.15 K; 100 kPa; Liquid; Vibrating tube method
Measure Name: mass density (kg/m3)

CN(C)CCCO [3-dimethylamino-1-propanol] ... 885
NCc1ccccc1 [benzylamine] ... 983
NCCO [2-aminoethan-1-ol] ... 1016
C[S+](C)[O-] [dimethyl sulfoxide] ... 1100
CN(C)CCOCCO [2-(2-dimethylaminoethoxy)ethanol] ... 954

----------
# Test Settings: 298.15 K; 100 kPa; Liquid; Vibrating tube method
Measure Name: mass density (kg/m3)

C[S+](C)[O-] [dimethyl sulfoxide] ... 1095
CN(C)CCOCCO ... 950
CN(C)CCCO ... 881
NCCO ... 1012
NCc1ccccc1 ... 978

----------
# Test Settings: 313.15 K; 100 kPa; Liquid; Frequency=3 MHz; Single path-length method
Measure Name: speed of sound (m/s)

NCCO ... 1669.4
CN(C)CCCO ... 1322.1
CN(C)CCOCCO ... 1336.8
C[S+](C)[O-] [dimethyl sulfoxide] ... 1436.3
NCc1ccccc1 ... 1500

----------
# Test Settings: 323.15 K; 100 kPa; Liquid; Frequency=3 MHz; Single path-length method
Measure Name: speed of sound (m/s)

C[S+](C)[O-] [dimethyl sulfoxide] ... 1403
NCc1ccccc1 ... 1461.1
NCCO ... 1637.3
CN(C)CCCO ... 1285.7
CN(C)CCOCCO ... 1303.9

----------
# Assay Text: refractive index (Na D-line) (dimensionless)
# Test Settings: 303.15 K; 100 kPa; Liquid; Standard Abbe refractometry
Measure Name: refractive index

CN(C)CCOCCO ... 1.438
CN(C)CCCO ... 1.433
NCc1ccccc1 ... 1.539
NCCO ... 1.451
C[S+](C)[O-] [dimethyl sulfoxide] ... 1.475

----------
# Test Settings: 293.15 K; 100 kPa; Liquid; Frequency=3 MHz; Single path-length method
Measure Name: speed of sound (m/s)

NCc1ccccc1 [benzylamine] ... 1579.7
CN(C)CCCO [3-dimethylamino-1-propanol] ... 1395.8
CN(C)CCOCCO [2-(2-dimethylaminoethoxy)ethanol] ... 1403.6
C[S+](C)[O-] [dimethyl sulfoxide] ... 1503.9
NCCO [2-aminoethan-1-ol] ... 1734.2

----------
# Test Settings: 303.15 K; 100 kPa; Liquid; Vibrating tube method
Measure Name: mass density (kg/m3)

CN(C)CCOCCO [2-(2-dimethylaminoethoxy)ethanol] ... 946
CN(C)CCCO [3-dimethylamino-1-propanol] ... 877
NCc1ccccc1 [benzylamine] ... 974
NCCO [2-aminoethan-1-ol] ... 1008
C[S+](C)[O-] [dimethyl sulfoxide] ... 1090

----------
# Assay Text: refractive index (Na D-line) (dimensionless)
# Test Settings: 313.15 K; 100 kPa; Liquid; Standard Abbe refractometry
Measure Name: refractive index

NCCO [2-aminoethan-1-ol] ... 1.447
C[S+](C)[O-] [dimethyl sulfoxide] ... 1.47
CN(C)CCOCCO [2-(2-dimethylaminoethoxy)ethanol] ... 1.435
NCc1ccccc1 [benzylamine] ... 1.534
CN(C)CCCO [3-dimethylamino-1-propanol] ... 1.429

----------
# Test Settings: 298.15 K; 100 kPa; Liquid; Frequency=3 MHz; Single path-length method
Measure Name: speed of sound (m/s)

CN(C)CCCO [3-dimethylamino-1-propanol] ... 1377.3
C[S+](C)[O-] [dimethyl sulfoxide] ... 1486.8
NCc1ccccc1 [benzylamine] ... 1560.1
CN(C)CCOCCO [2-(2-dimethylaminoethoxy)ethanol] ... 1386.7
NCCO [2-aminoethan-1-ol] ... 1718.3
